biological target: Type-2 angiotensin II receptor (Homo sapiens); format: cell-based; settings: cho-k1; note: in other assays of this panel Not Active means under 50% inhibition at 10 µM
Sequence (P50052 whole entry): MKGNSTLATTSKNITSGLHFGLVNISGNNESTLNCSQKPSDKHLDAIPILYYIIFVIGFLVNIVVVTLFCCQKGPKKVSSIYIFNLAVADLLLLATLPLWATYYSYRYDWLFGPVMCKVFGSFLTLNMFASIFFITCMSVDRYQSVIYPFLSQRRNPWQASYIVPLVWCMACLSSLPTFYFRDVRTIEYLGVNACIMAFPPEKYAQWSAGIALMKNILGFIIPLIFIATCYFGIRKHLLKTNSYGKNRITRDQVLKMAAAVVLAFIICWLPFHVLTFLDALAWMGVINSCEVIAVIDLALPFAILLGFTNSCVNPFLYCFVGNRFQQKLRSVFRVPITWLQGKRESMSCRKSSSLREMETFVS
endpointLabel: IC50

# annotated cases, reported IC50 shown
compound | IC50
CC(C)[C@H]1CC[C@H](C(=O)N[C@H](Cc2ccccc2)C(=O)O)CC1 [NATEGLINIDE] | Not Active
Cc1ccc(S(=O)(=O)NC(=O)NN2CC3CCCC3C2)cc1 (configuration not stated) [GLICLAZIDE] | Not Active
CC(C)NCC(O)COc1cccc2ccccc12 (configuration not stated) | Not Active
C=CCN1CC[C@]23c4c5ccc(O)c4O[C@H]2C(=O)CC[C@@]3(O)[C@H]1C5 | Not Active
O=C(N[C@H](CO)[C@H](O)c1ccc([N+](=O)[O-])cc1)C(Cl)Cl | Not Active
CC1=C(CC(=O)O)c2cc(F)ccc2/C1=C\c1ccc([S+](C)[O-])cc1 (configuration not stated) | Not Active
CCn1cc(C(=O)O)c(=O)c2cc(F)c(N3CCN(C)CC3)cc21 | Not Active
C#C[C@]1(OC(C)=O)CC[C@H]2[C@@H]3CCC4=CC(=O)CC[C@@H]4[C@H]3CC[C@@]21C [NORETHINDRONE ACETATE] | Not Active

Exam item: Find the measured IC50 of CC(C)C[C@H](NC(=O)[C@@H](O)[C@H](N)Cc1ccccc1)C(=O)O and report it.
Marked response: Not Active

Exam item: Give me measured IC50, please, for this compound: CN1CCC(=C2c3ccccc3C=Cc3ccccc32)CC1
Marked response: Not Active

Exam item: # return recorded IC50 for input CCCC(=O)Nc1ccc(OCC(O)CNC(C)C)c(C(C)=O)c1 (configuration not stated)
Marked response: Not Active

====

target: Beta-2 adrenergic receptor (Homo sapiens); assay: DRUGMATRIX: Adrenergic beta2 radioligand binding (ligand: [3H] CGP-12177); assay type: cell membranes, Membrane; conditions: cho; Not Active = under 50% inhibition at 10 µM
Sequence (P07550 whole entry): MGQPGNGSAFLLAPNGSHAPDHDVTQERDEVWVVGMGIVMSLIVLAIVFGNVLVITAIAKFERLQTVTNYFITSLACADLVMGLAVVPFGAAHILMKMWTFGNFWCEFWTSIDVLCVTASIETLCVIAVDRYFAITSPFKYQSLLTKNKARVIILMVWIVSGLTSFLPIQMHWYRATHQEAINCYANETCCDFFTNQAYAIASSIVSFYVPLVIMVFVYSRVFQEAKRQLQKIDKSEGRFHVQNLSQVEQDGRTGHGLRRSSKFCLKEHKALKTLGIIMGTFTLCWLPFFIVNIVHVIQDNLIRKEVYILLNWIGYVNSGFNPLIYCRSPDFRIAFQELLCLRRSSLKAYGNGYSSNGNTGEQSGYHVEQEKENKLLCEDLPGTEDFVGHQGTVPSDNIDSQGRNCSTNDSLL
endpointLabel: IC50

compound | IC50
CCOC(=O)C(C)(C)Oc1ccc(Cl)cc1 [CLOFIBRATE] | Not Active
COc1cccc2c1C(=O)c1c(O)c3c(c(O)c1C2=O)C[C@@](O)(C(=O)CO)C[C@@H]3O[C@H]1C[C@H](N)[C@H](O)[C@H](C)O1 | Not Active
CC1=C(C(=O)O)N2C(=O)[C@@H](NC(=O)[C@H](N)c3ccccc3)[C@H]2SC1 [CEPHALEXIN ANHYDROUS] | Not Active
CC(C)C[C@H](NC(=O)[C@@H](O)[C@H](N)Cc1ccccc1)C(=O)O | Not Active
Cc1ccccc1C(=O)N1CCC(Cc2ccccc2)CC1 | Not Active
N=C(N)NC(=O)c1nc(Cl)c(N)nc1N [AMILORIDE] | Not Active
[Cl-].[Cl-].[Zn+2] [ZINC CHLORIDE] | Not Active
O=C(N[C@H](CO)[C@H](O)c1ccc([N+](=O)[O-])cc1)C(Cl)Cl | Not Active

Continue with the next compound.
Exam item: Please supply the value of reported IC50 for the item CN(C)/N=N/c1[nH]cnc1C(N)=O
Marked response: Not Active

====

Target: Polyunsaturated fatty acid lipoxygenase ALOX15 (Oryctolagus cuniculus); note: in other assays of this panel Not Active means under 50% inhibition at 10 µM;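 note: inhibition of 15-lipoxygenase enzyme activity measured with linoleic acid as the substrate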
Sequence (P12530 whole entry): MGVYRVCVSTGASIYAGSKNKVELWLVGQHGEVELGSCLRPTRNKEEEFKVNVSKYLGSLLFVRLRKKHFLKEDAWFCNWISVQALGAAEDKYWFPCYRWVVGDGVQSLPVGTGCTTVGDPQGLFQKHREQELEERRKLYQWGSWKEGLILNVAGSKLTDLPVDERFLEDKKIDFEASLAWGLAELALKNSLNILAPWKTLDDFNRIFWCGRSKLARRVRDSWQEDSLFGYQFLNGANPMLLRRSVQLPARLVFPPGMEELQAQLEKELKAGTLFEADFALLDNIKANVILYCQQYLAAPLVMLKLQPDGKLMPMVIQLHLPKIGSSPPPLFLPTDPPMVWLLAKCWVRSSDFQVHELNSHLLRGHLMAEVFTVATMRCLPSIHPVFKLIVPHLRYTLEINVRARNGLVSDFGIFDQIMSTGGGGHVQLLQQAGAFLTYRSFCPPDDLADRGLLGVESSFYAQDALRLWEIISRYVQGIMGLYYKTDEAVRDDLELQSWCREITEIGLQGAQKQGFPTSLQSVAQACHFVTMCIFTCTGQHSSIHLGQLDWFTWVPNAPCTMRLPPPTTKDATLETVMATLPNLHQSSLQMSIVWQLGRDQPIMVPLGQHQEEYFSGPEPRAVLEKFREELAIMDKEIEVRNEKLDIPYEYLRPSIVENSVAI
Assay: biochemical
Format: tissue-based, Reticulocytes
Conditions: read-out: IC50
Assign pIC50 to each entry below.
Scale explanation: pIC50 corresponds to minus log10 of a concentration expressed in moles per litre.

Exam item: # return recorded pIC50 for input Oc1ccc(OCc2ccccc2)cc1
Marked response: 5.31

Exam item: Using known records, supply pIC50 for CC(=O)N1CCN(c2ccc(OCC3COC(Cn4ccnc4)(c4ccc(Cl)cc4Cl)O3)cc2)CC1 (configuration not stated)
Marked response: 5.27

Exam item: Consider the compound COc1cccc2c1C(=O)c1c(O)c3c(c(O)c1C2=O)C[C@@](O)(C(=O)CO)C[C@@H]3O[C@H]1C[C@H](N)[C@H](O)[C@H](C)O1 and give its recorded pIC50.
Marked response: 4.87

Exam item: Name the recorded pIC50 of the compound listed here: CC/C(=C(/CC)c1ccc(O)cc1)c1ccc(O)cc1
Marked response: 5.53

Exam item: For C[C@]12CC[C@@H]3c4ccc(O)cc4CC[C@H]3[C@@H]1CC[C@@H]2O , write its pIC50.
Marked response: 4.95

Exam item: Identify pIC50 associated with the compound CC(=O)Nc1ccc(O)cc1
Marked response: 4.55

Exam item: Report pIC50, nothing else, for this compound: CC[C@]1(O)C[C@@H]2CN(CCc3c([nH]c4ccccc34)[C@@](C(=O)OC)(c3cc4c(cc3OC)N(C)[C@H]3[C@@](O)(C(=O)OC)[C@H](OC(C)=O)[C@]5(CC)C=CCN6CC[C@]43[C@@H]65)C2)C1
Marked response: 5.30

FYI, the data here is from ChEMBL document CHEMBL1909046.
